System under test: hFASN enzyme (full length) (Homo sapiens, UniProt P49327)
Sequence (P49327 whole entry): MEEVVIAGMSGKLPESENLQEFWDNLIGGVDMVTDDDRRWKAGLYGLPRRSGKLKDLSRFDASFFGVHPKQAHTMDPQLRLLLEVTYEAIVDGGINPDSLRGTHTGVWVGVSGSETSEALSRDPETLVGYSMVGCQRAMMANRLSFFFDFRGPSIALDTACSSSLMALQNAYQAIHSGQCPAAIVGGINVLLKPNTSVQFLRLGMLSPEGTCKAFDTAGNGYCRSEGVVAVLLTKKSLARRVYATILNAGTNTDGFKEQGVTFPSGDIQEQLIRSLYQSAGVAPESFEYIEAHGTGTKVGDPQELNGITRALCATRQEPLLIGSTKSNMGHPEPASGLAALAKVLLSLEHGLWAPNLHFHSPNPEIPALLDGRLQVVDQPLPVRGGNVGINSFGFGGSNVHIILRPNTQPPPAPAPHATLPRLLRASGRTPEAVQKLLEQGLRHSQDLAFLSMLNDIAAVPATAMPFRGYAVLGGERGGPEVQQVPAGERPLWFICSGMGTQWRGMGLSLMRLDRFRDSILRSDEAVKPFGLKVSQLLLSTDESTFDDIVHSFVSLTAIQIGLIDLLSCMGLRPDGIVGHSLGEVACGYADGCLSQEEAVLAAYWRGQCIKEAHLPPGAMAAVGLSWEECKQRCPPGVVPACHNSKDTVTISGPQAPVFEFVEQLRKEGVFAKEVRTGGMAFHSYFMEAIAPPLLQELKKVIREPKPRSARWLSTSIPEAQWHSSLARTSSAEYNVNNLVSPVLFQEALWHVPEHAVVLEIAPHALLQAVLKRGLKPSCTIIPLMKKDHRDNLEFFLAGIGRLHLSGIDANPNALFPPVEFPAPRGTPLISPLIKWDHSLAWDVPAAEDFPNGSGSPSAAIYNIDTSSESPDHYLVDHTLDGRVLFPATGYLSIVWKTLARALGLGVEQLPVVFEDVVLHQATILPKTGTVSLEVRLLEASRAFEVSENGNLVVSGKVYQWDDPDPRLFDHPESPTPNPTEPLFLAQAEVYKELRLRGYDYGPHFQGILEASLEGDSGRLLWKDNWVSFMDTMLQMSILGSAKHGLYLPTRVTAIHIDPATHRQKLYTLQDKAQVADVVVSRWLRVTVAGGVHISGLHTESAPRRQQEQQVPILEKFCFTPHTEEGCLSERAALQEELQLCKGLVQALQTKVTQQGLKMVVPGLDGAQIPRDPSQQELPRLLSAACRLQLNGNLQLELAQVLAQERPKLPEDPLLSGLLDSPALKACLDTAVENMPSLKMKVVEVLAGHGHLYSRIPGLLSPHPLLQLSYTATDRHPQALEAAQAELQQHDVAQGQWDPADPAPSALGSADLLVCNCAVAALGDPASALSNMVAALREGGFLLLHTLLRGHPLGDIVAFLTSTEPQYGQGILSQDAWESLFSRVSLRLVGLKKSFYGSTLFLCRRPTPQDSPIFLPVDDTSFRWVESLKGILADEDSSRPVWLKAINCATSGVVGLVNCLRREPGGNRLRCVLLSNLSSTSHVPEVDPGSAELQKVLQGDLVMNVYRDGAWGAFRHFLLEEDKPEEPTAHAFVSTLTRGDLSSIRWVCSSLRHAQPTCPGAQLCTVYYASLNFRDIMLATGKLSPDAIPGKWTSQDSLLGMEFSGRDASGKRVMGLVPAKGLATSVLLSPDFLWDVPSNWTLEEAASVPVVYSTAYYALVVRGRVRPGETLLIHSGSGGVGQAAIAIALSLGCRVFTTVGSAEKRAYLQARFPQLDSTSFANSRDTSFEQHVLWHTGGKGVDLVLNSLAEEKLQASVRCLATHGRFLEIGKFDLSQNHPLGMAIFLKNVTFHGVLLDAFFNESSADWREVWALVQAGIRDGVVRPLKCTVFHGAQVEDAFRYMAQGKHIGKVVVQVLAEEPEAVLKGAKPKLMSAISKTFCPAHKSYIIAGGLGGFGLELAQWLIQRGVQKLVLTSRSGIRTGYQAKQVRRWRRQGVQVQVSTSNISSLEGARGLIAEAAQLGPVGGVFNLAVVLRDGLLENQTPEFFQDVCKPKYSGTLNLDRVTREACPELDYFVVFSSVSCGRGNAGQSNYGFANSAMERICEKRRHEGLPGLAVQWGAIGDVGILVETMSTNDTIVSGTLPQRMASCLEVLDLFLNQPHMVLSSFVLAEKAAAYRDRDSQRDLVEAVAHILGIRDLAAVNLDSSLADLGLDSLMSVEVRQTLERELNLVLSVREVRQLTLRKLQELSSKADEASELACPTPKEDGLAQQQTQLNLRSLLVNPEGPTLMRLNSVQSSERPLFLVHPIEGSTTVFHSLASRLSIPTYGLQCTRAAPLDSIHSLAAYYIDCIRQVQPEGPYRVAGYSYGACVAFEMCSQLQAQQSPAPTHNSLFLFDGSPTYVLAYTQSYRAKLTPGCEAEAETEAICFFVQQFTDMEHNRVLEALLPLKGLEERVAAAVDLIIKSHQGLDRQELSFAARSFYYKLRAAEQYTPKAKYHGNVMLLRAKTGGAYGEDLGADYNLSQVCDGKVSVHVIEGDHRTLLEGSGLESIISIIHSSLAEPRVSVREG
Recorded IC50 determines the label; the label ranges are category 1 = under 50 nM, category 2 = from 50 nM up to 900 nM, category 3 = 900 nM and over

INSERT INTO measurements (compound, group) VALUES
  ('CCCCCCN1CCC(C(=O)Nc2cc(C(=O)N3CCC(c4ccc(-c5cnn(C)c5)cc4)CC3)ccc2C)CC1', 'category 1'),
  ('Cc1ccc(C(=O)N2CCC(c3ccc(-c4cnn(C)c4)cc3)CC2)cc1NC(=O)C1CN(C2CCCCC2)C1', 'category 2'),
  ('Cc1ccc(C(=O)N2CCC(c3ccc4ncsc4c3)CC2)cc1NC(=O)c1ccc(NC(C)C)nc1', 'category 3'),
  ('CC(C)Nc1ccc(C(=O)Nc2cc(C(=O)N3CCC(c4ccc(-c5cnn(C)c5)cc4)CC3)ccc2OCc2ccccc2)cn1', 'category 2'),
  ('Cc1ccc(C(=O)N2CCC(c3ccc4c(c3)CN(C)C4=O)CC2)cc1NC(=O)c1ccc(NC(C)C)nc1', 'category 3'),
  ('Cc1ccc(C(=O)N2CCC(c3ccc(-c4cnn(C)c4)cc3)CC2)cc1NC(=O)C1CCOCC1', 'category 1'),
  ('COc1cccc(-c2ccc(C3CCN(C(=O)c4ccc(C)c(NC(=O)c5ccc(NC(C)C)nc5)c4)CC3)cc2)c1', 'category 2'),
  ('Cc1ccc(C(=O)N2CCC(c3ccc(-c4cnn(C)c4)cc3)CC2)cc1NC(=O)C1CCN(C2CCC2)C1 (stereo not drawn)', 'category 2'),
  ('Cc1ccc(C(=O)N2CC(c3ccc(-c4cnn(C)c4)cc3)C2)cc1NC(=O)c1ccc(NC2CCC2)nc1', 'category 1'),
  ('Cc1ccc(C(=O)N2CCC(c3ccc(-c4cnn(C)c4)cc3)CC2)cc1NC(=O)C1CCN(CC(C)(C)C)CC1', 'category 1'),
  ('Cc1ccc(C(=O)N2CCC(c3ccc(-c4cnn(C)c4)cc3)CC2)cc1NC(=O)c1nc(C(C)(C)C)cs1', 'category 3');

* * *

System under test: FASN Keto-reductase Domain (Homo sapiens, UniProt P49327)
Construct: 10 μL hFASN enzyme (full length, 300 ng, purified in house) and 360 μM NADPH; made in house
Sequence (P49327 whole entry, the tested form may be a part): as the sequence (P49327 whole entry) above
Experimental details: Fatty Acid Synthase Keto-Reductase Domain (FASN KR) Inhibition
Format: biochemical
Protocol conditions: mean where tested more than once; read-out: FASN K-R Domain pIC50 (converted)
Measured IC50 values are reported for all entries that follow.
Measurement kind: IC50

INSERT INTO measurements (compound, measurement_kind, endpoint_value) VALUES
  ('Cc1ccc(C(=O)N2CC(c3ccc(-c4cccc5ncccc45)cc3)C2)cc1NC(=O)c1ccc(NC(C)C)nc1', 'IC50', '22.9 nM'),
  ('Cc1ccc(C(=O)N2CCC(c3ccc(-c4cnn(C5CC5)c4)cc3)CC2)cc1NC(=O)c1ccc(NC(C)C)nc1', 'IC50', '53.7 nM'),
  ('CCCCCCN1CCC(C(=O)Nc2cc(C(=O)N3CCC(c4ccc(-c5cnn(C)c5)cc4)CC3)ccc2C)C1 (stereo not shown)', 'IC50', '389 nM'),
  ('Cc1ccc(C(=O)N2CCC(c3ccc(-c4cnn(C)c4)cc3)CC2)cc1NC(=O)c1c(Cl)cccc1Cl', 'IC50', '794 nM');

* * *

System under test: FASN Keto-reductase Domain (Homo sapiens, UniProt P49327)
Construct: 10 μL hFASN enzyme (full length, 300 ng, purified in house) and 360 μM NADPH; made in house
Experimental details: Fatty Acid Synthase Keto-Reductase Domain (FASN KR) Inhibition
Assay type: biochemical
Protocol conditions: mean where tested more than once; read-out: FASN K-R Domain pIC50 (converted)
API: label(entry) gives True if the entry's IC50 is strictly smaller than 300 nM; on equality or larger values it gives False.

INSERT INTO assay_data (molecule, system_under_test, group) VALUES
  ('Cc1ccc(C(=O)N2CCC(c3ccc(-c4cnn(C)c4)cc3)CC2)cc1NC(=O)c1ccc(F)cc1F', 'FASN Keto-reductase Domain (Homo sapiens, UniProt P49327)', 'True'),
  ('CC(C)Nc1ccc(C(=O)Nc2cc(C(=O)N3CCC(c4ccc(-c5cnn(C)c5)cc4)CC3)ccc2OCc2ccccc2)cn1', 'FASN Keto-reductase Domain (Homo sapiens, UniProt P49327)', 'False'),
  ('Cc1ccc(C(=O)N2CC(c3ccc(-c4cnn(C)c4)cc3)C2)cc1NC(=O)c1ccncc1', 'FASN Keto-reductase Domain (Homo sapiens, UniProt P49327)', 'True'),
  ('Cc1ccc(C(=O)N2CCC(c3ccc(-c4ccco4)cc3)CC2)cc1NC(=O)c1ccc(NC(C)C)nc1', 'FASN Keto-reductase Domain (Homo sapiens, UniProt P49327)', 'False'),
  ('Cc1ccc(C(=O)N2CCC(c3ccc(-c4ccnn4C)cc3)CC2)cc1NC(=O)c1ccc(NC(C)C)nc1', 'FASN Keto-reductase Domain (Homo sapiens, UniProt P49327)', 'True'),
  ('Cc1ccc(C(=O)N2CCC(c3ccc(-c4cnn(C)c4)cc3)CC2)cc1NC(=O)c1ccc(F)cc1Cl', 'FASN Keto-reductase Domain (Homo sapiens, UniProt P49327)', 'True'),
  ('Cc1ccc(C(=O)N2CCC(c3ccc(-c4cnn(C)c4)cc3)CC2)cc1NC(=O)[C@@H]1CCCN1C', 'FASN Keto-reductase Domain (Homo sapiens, UniProt P49327)', 'False'),
  ('Cc1ccc(C(=O)N2CCC(c3ccc(-c4cnn(C)c4)cc3)CC2)cc1NC(=O)c1ccc(N(C)C)cn1', 'FASN Keto-reductase Domain (Homo sapiens, UniProt P49327)', 'True'),
  ('Cc1ccc(C(=O)N2CCC(c3ccc4c(c3)C(C)N(C)C4=O)CC2)cc1NC(=O)c1ccc(Cl)nc1 (stereo not drawn)', 'FASN Keto-reductase Domain (Homo sapiens, UniProt P49327)', 'False'),
  ('COc1cc(Cl)cc(C(=O)Nc2cc(C(=O)N3CCC(c4ccc(-c5cnn(C)c5)cc4)CC3)ccc2C)c1', 'FASN Keto-reductase Domain (Homo sapiens, UniProt P49327)', 'True'),
  ('Cc1ccc(C(=O)N2CCC(c3ccc(-c4cnn(C)c4)cc3)CC2)cc1NC(=O)C(C)C', 'FASN Keto-reductase Domain (Homo sapiens, UniProt P49327)', 'True'),
  ('CCCCN1CCC(C(=O)Nc2cc(C(=O)N3CCC(c4ccc(-c5cnn(C)c5)cc4)CC3)ccc2C)C1 (stereo not drawn)', 'FASN Keto-reductase Domain (Homo sapiens, UniProt P49327)', 'False'),
  ('Cc1ccc(C(=O)N2CCC(c3ccc(-c4cnn(C)c4)cc3)CC2)cc1NC(=O)C1CN(C)C1', 'FASN Keto-reductase Domain (Homo sapiens, UniProt P49327)', 'True'),
  ('Cc1ccc(C(=O)N2CCC(c3ccc(-c4cnn(C5CCOCC5)c4)cc3)CC2)cc1NC(=O)c1ccc(NC(C)C)nc1', 'FASN Keto-reductase Domain (Homo sapiens, UniProt P49327)', 'False');
